# systemName: RORγ (UniProt P51449)
# testSummary: RORγ Gal4 Reporter Gene Assay in 293T cells (firefly and renilla luciferase)
# Format: cell-based, human
endpoint: pIC50 (REN)

Form: compound = `Cc1c(C(=O)NC2(C)CCOCC2)cc(-c2ccc(S(=O)(=O)NC(C)(C)C)c(C(C)(C)C)c2)n1CC1CCCCC1` ; pIC50 (REN) = 6.2/7.0/7.2

Sample `Cc1c(C(=O)NC2CCOCC2)cc(-c2ccc(S(=O)(=O)NC(C)(C)C)c(Cl)c2Cl)n1CC1CCCCC1` ; pIC50 (REN) observed: 6.8/7.9/8.0

Recorded result, `Cc1c(C(=O)NCC2(O)CCOCC2)cc(-c2ccc(S(=O)(=O)NC(C)(C)C)c(C(F)F)c2)n1CC1CCCCC1` , pIC50 (REN): 6.7/8.0/8.0

// Cc1c(C(=O)NCC(C)(C)NC(=O)C(C)O)cc(-c2cc(C(C)(C)C)c3c(c2)C2(CCO3)CC2)n1CC1CCCCC1 (stereo not shown) : pIC50 (REN) value = 5.5/7.0/7.0

====

I'd appreciate it if you could supply pIC50 (REN) values for the items below.
# systemName: RORγ (UniProt P51449)
# Sequence (P51449 1-518): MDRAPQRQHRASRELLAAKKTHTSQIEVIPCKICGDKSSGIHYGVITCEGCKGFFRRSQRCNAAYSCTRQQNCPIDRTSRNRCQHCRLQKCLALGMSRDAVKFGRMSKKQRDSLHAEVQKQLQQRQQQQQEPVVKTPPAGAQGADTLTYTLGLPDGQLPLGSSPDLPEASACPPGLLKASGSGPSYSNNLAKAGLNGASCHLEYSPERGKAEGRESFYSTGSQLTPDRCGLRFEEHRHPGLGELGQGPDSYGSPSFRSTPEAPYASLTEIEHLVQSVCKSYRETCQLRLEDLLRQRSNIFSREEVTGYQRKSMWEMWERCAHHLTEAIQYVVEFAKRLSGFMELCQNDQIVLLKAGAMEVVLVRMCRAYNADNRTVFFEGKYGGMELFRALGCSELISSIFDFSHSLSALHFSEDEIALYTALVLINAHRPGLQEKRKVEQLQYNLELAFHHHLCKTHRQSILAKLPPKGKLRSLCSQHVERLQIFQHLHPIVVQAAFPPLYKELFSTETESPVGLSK
# testSummary: RORγ Gal4 Reporter Gene Assay in 293T cells (firefly and renilla luciferase)
# Type: cell-based, human
# runConditions: third value of the cell; Gal4 reporter gene assay in 293T cells, renilla normalised luciferase
Just the number, please, no unit after it.

The reported pIC50 (REN) of the compound `Cc1c(C(=O)N[C@H]2C[C@H](C(=O)O)C2)c(Cl)c(-c2cc(C(C)(C)O)cc(C3(C)CC3)c2)n1CC1CCCCC1` was 6.8

GET /value?item= `Cc1c(C(=O)NCCC(C)(C)C(=O)O)cc(-c2ccc(S(=O)(=O)NC(C)(C)C)c3ccccc23)n1CC1CCCCC1` &field=pIC50 (REN) returns 7.8

GET /value?item= `Cc1c(C(=O)NC2COC2)cc(-c2cc(C(C)(C)C)c3c(c2)C(C)(C)CC(=O)N3)n1CC1CCCCC1` &field=pIC50 (REN) returns 7.0

Data point: `Cc1c(C(=O)NC2CC2)cc(-c2ccc(S(=O)(=O)NC(C)(C)C)c(C(C)(C)C)c2)n1CC1CCCCC1` ; pIC50 (REN) = 7.0

Measured pIC50 (REN) of `Cc1c(C(=O)NC2COC2)cc(-c2cc(C(C)(C)C)cc(C(C)(C)C)c2)n1S(=O)(=O)N1CCCCCC1` : 7.1

Entry `Cc1c(C(=O)NC2COC2)cc(-c2cc(C3(C)CC3)cc(C3(C)CC3)c2)n1CC1CCCCC1` ; pIC50 (REN) = 7.5

// `Cc1c(C(=O)NC2CCOCC2)cc(-c2cc(C(=O)NC(C)(C)C)cc(C3(C)CC3)c2)n1CC1CCCCC1` : pIC50 (REN) value = 7.8

Summary for this compound, `Cc1c(C(=O)NS(C)(=O)=O)cc(-c2cc(C(C)(C)C)cc(C(C)(C)C)c2)n1CC1CCCCC1` : pIC50 (REN) is 6.1

`CC(C)(C)NS(=O)(=O)c1ccc(-c2cc(C(=O)N[C@H]3C[C@H](C(=O)O)C3)c(Cl)n2CC2CCCCC2)c2ccccc12` yielded pIC50 (REN) of 8.0

Value of pIC50 (REN) reported for the compound `Cc1c(C(=O)NC2COC2)cc(-c2cc(C(C)(C)C)cc(C(C)(C)C)c2)n1S(=O)(=O)N1CCC(C)CC1` is 6.8

Query `Cc1c(C(=O)N[C@H]2C[C@H](C(=O)O)C2)cc(-c2cc(NCC(C)(C)C)nc(C(C)(C)C)c2)n1CC1CCCCC1` yields pIC50 (REN) of 7.0

Please fill in: pIC50 (REN) reported for `Cc1c(C(=O)NC2CCOCC2)cc(-c2cc(C(=O)NC(C)(C)C)cc(C(C)(C)O)c2)n1CC1CCCCC1` = 6.0

Lab book: pIC50 (REN) of `CC(C)(CCNC(=O)c1cc(-c2cc(C(C)(C)C)cc(C3(C)CC3)c2)n(CC2CCCCC2)c1F)C(=O)O` noted as 7.0

pIC50 (REN) recorded for this compound, `CCC(C)(C)NS(=O)(=O)c1ccc(-c2cc(C(=O)NC3CCOCC3)c(C)n2CC2CCCC2)cc1C(F)(F)F` , is 7.8

response.value for `Cc1c(C(=O)NCC2CCN(S(C)(=O)=O)CC2)cc(-c2cc(C(C)(C)C)cc(C3(C)CC3)c2)n1CC1CCCCC1` (field: pIC50 (REN)) = 7.4

====

# systemName: RORγ (UniProt P51449)
# testSummary: RORγ Gal4 Reporter Gene Assay in 293T cells (firefly and renilla luciferase)
# Type: cell-based, human
Assignment: determine reported pIC50 (FF) for the given compounds.

The recorded pIC50 (FF) for entry Cc1c(C(=O)NCC2(S(C)(=O)=O)CCOCC2)cc(-c2cc(C(C)(C)C)c3c(c2)C2(CCO3)CC2)n1CC1CCCCC1 [17/11] equals 6.7/7.2/7.2

Kindly note the recorded pIC50 (FF) for Cc1c(C(=O)NC2CCOCC2)cc(-c2ccc(S(=O)(=O)NC3(C)CC3)c(C(C)(C)C)c2)n1CC1CCCCC1 [17/227] , which is 6.3/8.1/8.1

Form field pIC50 (FF), entry CC(C)(C)NS(=O)(=O)c1ccc(-c2c(Cl)c(C(=O)NC3CCOCC3)c(Cl)n2CC2CCCCC2)c2ccccc12 [Example 23] : 6.7/8.5/8.5

Looking up Cc1c(C(=O)NC2COC2)cc(-c2cc(C(C)(C)C)cc(C(C)(C)C)c2)n1CC1CCCCC1 [1/53] , I found its pIC50 (FF) recorded as 6.8/7.3/7.4

compound Cc1c(C(=O)NCC(C)(C)C(=O)NCCO)cc(-c2cc(C(C)(C)C)c3c(c2)C2(CCO3)CC2)n1CC1CCCCC1 [11/5] , pIC50 (FF) observed: 6.5/7.3/7.4

Short answer for Cc1c(C(=O)NC2COC2)cc(-c2cc(C(C)(C)C)cc(C(C)(C)C)c2)n1CC1CCCC(C)C1 (stereo not shown) [1/119] : pIC50 (FF) was 6.7/7.4/7.3

pIC50 (FF) recorded for this compound, CC(C)(O)CNC(=O)c1cc(-c2ccc(S(=O)(=O)NC(C)(C)C)c(C(C)(C)C)c2)n(CC2CCCCC2)c1C(F)(F)F [1/26] , is 5.0/<4.7/<4.7
